# ASSAYED_TARGET: Integrin alpha-4 (Homo sapiens) (UniProt P13612)
# Sequence (P13612 whole entry, looked up): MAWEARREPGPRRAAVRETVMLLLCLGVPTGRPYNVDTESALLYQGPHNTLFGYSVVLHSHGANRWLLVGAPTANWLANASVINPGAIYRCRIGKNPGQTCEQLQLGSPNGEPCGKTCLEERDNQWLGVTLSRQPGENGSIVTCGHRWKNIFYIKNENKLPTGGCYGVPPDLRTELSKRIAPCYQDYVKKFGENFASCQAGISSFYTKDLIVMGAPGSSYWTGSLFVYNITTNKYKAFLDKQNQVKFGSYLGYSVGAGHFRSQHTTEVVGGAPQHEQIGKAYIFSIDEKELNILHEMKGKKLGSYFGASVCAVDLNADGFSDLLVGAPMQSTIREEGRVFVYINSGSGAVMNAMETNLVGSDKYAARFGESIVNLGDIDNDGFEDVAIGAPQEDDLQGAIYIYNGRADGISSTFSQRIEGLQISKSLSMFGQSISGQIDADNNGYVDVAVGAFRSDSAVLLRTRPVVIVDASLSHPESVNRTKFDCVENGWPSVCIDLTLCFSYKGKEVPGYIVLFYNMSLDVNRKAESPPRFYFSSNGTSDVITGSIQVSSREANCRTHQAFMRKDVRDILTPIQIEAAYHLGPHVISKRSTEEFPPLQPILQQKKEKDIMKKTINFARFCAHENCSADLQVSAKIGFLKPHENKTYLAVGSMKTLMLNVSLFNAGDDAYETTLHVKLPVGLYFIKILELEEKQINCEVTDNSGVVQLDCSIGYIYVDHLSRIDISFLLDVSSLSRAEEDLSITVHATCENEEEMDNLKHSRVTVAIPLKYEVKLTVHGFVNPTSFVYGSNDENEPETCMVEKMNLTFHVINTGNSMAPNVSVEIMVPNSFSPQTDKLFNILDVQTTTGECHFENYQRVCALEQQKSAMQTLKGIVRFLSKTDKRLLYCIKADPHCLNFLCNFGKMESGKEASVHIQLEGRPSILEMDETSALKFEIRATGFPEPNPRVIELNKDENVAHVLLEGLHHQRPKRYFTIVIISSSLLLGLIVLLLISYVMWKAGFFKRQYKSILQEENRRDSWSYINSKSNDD
# ASSAY_PROTOCOL: inhibition in human VLA-4 binding assay, primary screen, VLA-4 allosteric modulator project, MLPCN library, flow cytometry, VLA-4 expressing cells (AID 2557)
# CONDITION_NOTES: ligand binding flow cytometry, hits give high values, about 7 µM as worked out from the volumes in the protocol
The whole screen tested about 330,000 compounds, of which about 650 (0.2%) were called active. Shown is part of a subset that was picked to be rich in actives.
# reported inhibition; entries follow
Number in %, nothing else.

Worked cases, inhibition given:
Inquiry: Item Cc1ccc(C2NC(=S)NC3=C2N2CCC3CC2)cc1 (stereo unspecified) has what recorded inhibition?
Reply text: 2.28

Inquiry: // repeat for Cc1cccc2nc(CSc3nc4[nH]ncc4c(=O)n3-c3cccc(Cl)c3)cc(=O)n12 and report
Reply text: 0.93

Inquiry: // repeat for Cc1ccnc(NC(=O)c2ccco2)n1 and report
Reply text: 63.2

Inquiry: // repeat for Cc1[nH]c2ccccc2c1SCC(=O)Nc1nccs1 and report
Reply text: 4.64

Inquiry: // repeat for Cc1ccc(CN2CCN(Cc3ccc4ncccc4c3)CC2CCO)cc1 (stereo unspecified) and report
Reply text: 7.01

Inquiry: // repeat for O=C(NC(=S)Nc1ccccc1C(=O)O)c1ccc(-c2ccc(Br)cc2)o1 and report
Reply text: -8.29

Inquiry: // repeat for CCN(CC(=O)NCc1ccc(Cl)cc1)C(=O)CSc1ccccc1 and report
Reply text: -3.34

Inquiry: // repeat for CCOC(=O)c1ccc(N2C(=O)CC(N3CC(C)OC(C)C3)C2=O)cc1 (stereo unspecified) and report
Reply text: 108

Inquiry: // repeat for O=C(COc1ccc(S(=O)(=O)NCCc2ccccc2)cc1)N1CCCC1 and report
Reply text: 3.9

Inquiry: // repeat for N#C/C(=C/c1ccc(Cl)cc1)NC(=O)c1ccccc1 and report
Reply text: -2.66

More entries:
Inquiry: Item COc1cccc(NC(=O)N2C3CCCC2CC(NC(C)=O)C3)c1 (stereo unspecified) has what recorded inhibition?
Reply text: 9.9

Inquiry: // repeat for COc1ccc(-n2ncc3c2CC(C)(C)CC3NC(=O)CCc2c(C)nn(C)c2C)cc1 (stereo unspecified) and report
Reply text: 4.43

Inquiry: // repeat for Cc1c(C=O)c2ccccn2c1C(=O)c1ccncc1 and report
Reply text: 11.9

Inquiry: // repeat for Cc1nn(Cc2ccc(Cl)c(Cl)c2)c(C)c1NC(=O)c1cc(C2CC2)on1 and report
Reply text: 55

Inquiry: // repeat for COc1ccc(NC(=O)NC2CC3CCCC(C2)N3Cc2ccccc2)cc1 (stereo unspecified) and report
Reply text: 6.26

* * *

# ASSAYED_TARGET: Integrin alpha-4 (Homo sapiens)
# ASSAY_PROTOCOL: inhibition in human VLA-4 binding assay, primary screen, VLA-4 allosteric modulator project, MLPCN library, flow cytometry, VLA-4 expressing cells (AID 2557)
# CONDITION_NOTES: ligand binding flow cytometry, hits give high values, about 7 µM as worked out from the volumes in the protocol
Screen size: about 330,000 compounds; about 650 (0.2%) were called active. This excerpt belongs to a sample that is enriched for actives.
# reported inhibition; entries follow
Number in %, nothing else.

Inquiry: Item COc1ccccc1N1CCN(c2ncnc3sc(C)c(-c4ccccc4)c23)CC1 has what recorded inhibition?
Reply text: -10.6

Inquiry: // repeat for Cc1cc(C)c(C#N)c(SCC(=O)NN2CC(=O)N(c3ccccc3F)CC2=O)n1 and report
Reply text: 13.8

Inquiry: // repeat for COCC1CCCN(Cc2nc(-c3ccc4c(c3)OCO4)no2)C1 (stereo unspecified) and report
Reply text: 9.31

More entries:
Inquiry: Item Cc1cc2cc3c(N)[nH]nc3nc2cc1C has what recorded inhibition?
Reply text: 10.6

Inquiry: // repeat for CCOCCCN(C(=O)Cn1nnc(-c2ccc(OC)c(OC)c2)n1)C(CC)C(=O)NC1CCCC1 (stereo unspecified) and report
Reply text: 4.18

Inquiry: // repeat for COc1ccccc1CNC(=O)c1ccc(Cl)c(S(=O)(=O)N2CCCC2)c1 and report
Reply text: 4.64

Inquiry: // repeat for O=C(CN1C(=O)NC2(CCCCC2)C1=O)NCCc1c[nH]c2ccccc12 and report
Reply text: 4.17

Inquiry: // repeat for O=C(O)CSCC(=O)Nc1ccc(C(F)(F)F)cc1 and report
Reply text: 4.49

Inquiry: // repeat for CC1=C(C/C=C(\C)CCCC(C)CCCC(C)CCCC(C)C)C(=O)c2ccccc2C1=O (stereo unspecified) and report
Reply text: -3.08

Inquiry: // repeat for O=C1NC2(CCCCC2)N=C1c1ccccc1 and report
Reply text: 7.05

Inquiry: // repeat for Nc1nc(SCC(=O)NNc2c(Cl)cc(Cl)cc2Cl)n[nH]1 and report
Reply text: -17.3

Inquiry: // repeat for COc1ncnc2c1N=C1CC(C)(C)CC(N)=C1S2 and report
Reply text: -11.6

Inquiry: // repeat for CN(c1ccccc1)S(=O)(=O)c1ccc(Cl)c(C(=O)OCC(=O)NCc2ccco2)c1 and report
Reply text: 17.3

Inquiry: // repeat for O=C(COc1ccccc1F)NNC(=O)c1ccc(N2CCCCC2)c([N+](=O)[O-])c1 and report
Reply text: 19.2

Inquiry: // repeat for O=C(CN(C(=O)CNC(=O)c1cccs1)c1cccc(F)c1)NC1CCCCC1 and report
Reply text: 5.25
